system: NCI-H292: human mucoepidermoid lung carcinoma cells; test: MTT assay on NCI-H292; type: cell-based; settings: NCI-H292, 96 h, growth inhibition, 96 h incubation
Labelling field: enter Condition met if recorded IC50 is less than 100 nM. Enter Condition not met if it equals or exceeds that cut-off.

>>> group("CC(C)(C)[C@H](c1cc(-c2cc(F)ccc2F)cn1Cc1ccccc1)N(CCCN)C(=O)CSC[C@H](NC(=O)CCOCCOCCOCCOCCNC(=O)CNC(=O)CC(SC[C@H](N)C(=O)O)C(=O)O)C(=O)O (some centres unmarked)")
"Condition not met"
>>> group("CC(C)(C)[C@H](c1cc(-c2cc(F)ccc2F)cn1Cc1ccccc1)N(CC[C@H](N)C(=O)O)C(=O)CO")
"Condition met"
>>> group("CC(C)(C)[C@H](c1cc(-c2cc(F)ccc2F)cn1Cc1ccccc1)N(CC[C@H](N)C(=O)NCCC(=O)N[C@H](CCC(=O)O)C(=O)O)C(=O)CO")
"Condition not met"
>>> group("CC(C)(C)[C@H](c1cc(-c2cc(F)ccc2F)cn1Cc1ccccc1)N(CCCN)C(=O)CSC[C@H](NC(=O)CCC(=O)O)C(=O)O")
"Condition met"
>>> group("CC(C)(C)[C@H](c1cc(-c2cc(F)ccc2F)cn1Cc1ccccc1)N(CC[C@H](N)C(=O)NCCNC(=O)CNC(=O)C(CC(=O)O)SC[C@H](N)C(=O)O)C(=O)CO (some centres unmarked) [Example M27]")
"Condition not met"
